All values here come from PubChem BioAssay AID1085.

Field: inhibition. Provide a value for each of the compounds that follow.
Molecular target: Glycoprotein 42 (Epstein-Barr virus (strain AG876))
Test: EBV glycoprotein 42 binding blockers – biochemical, uHTS, fluorescence polarization, primary screen (AID 1085)
Conditions: Fluorescence polarization binding assay, mP read-out; stronger effect = higher value; tested at 21.74 µM
Screen size: about 220,000 compounds; about 930 (0.42%) were called active. The full list was thinned out, with actives kept by preference.
Numbers only, in %.

# compound, inhibition (%)
measured = [
    ("CCCCN1C(=O)CC(N2CCOCC2)C1=O (stereo unspecified)", -40.1),
    ("Cc1c(C(=O)Nc2cccc(Cl)c2)cn2c(nc3ccccc32)c1C#N", -23.4),
    ("Cc1nn(-c2cc(Cl)ccc2N)c(=O)c2ccccc12", -22.9),
]

Parameter requested: inhibition. Apply to each item below.
1. CCN1CC=C2C(C#N)=C(N)C(C#N)(C#N)[C@H](c3ccoc3)[C@H]2C1
2. CC(C)Oc1ccc(Oc2ccc(C(F)(F)F)cn2)cc1
3. Nc1ccc2nc3c(=O)[nH]c(=S)[nH]c3nc2c1
4. CC(C)(C)NC(=O)CSC(=Nc1ccccc1F)NC#N

[out]
1: 56.6; 2: 6.36; 3: 158; 4: 4.3

Parameter requested: inhibition. Apply to each item below.
1. Cc1nn(C)cc1N1C(=O)c2cccc3c(N)ccc(c23)C1=O
2. O=C(Nc1ccc([N+](=O)[O-])cc1)C1CC12CCC2 (stereo unspecified)
3. CCOc1cccc(=O)c2c(C)n(CC3CCCO3)c(C)c12 (stereo unspecified)
4. C/C(CC(=O)N1CCN(C=O)CC1)=N\NC(=O)c1ccc(Br)cc1

[out]
[149, 18.7, 14.8, 8.36]
